// provenance: patent US9260481B2

- Tested on: P. aeruginosa
- Protocol Summary: Resistance profile of multiresistant clinical isolates
- Format: cell-based, Pseudomonas aeruginosa
- Set-up: key: R: resistant; S: sensitive; I: intermediate
- Condition Parameters: P. aeruginosa multiresistant clinical isolate 42162
Quantity Kind: Susceptibility of isolate to antibacterial (R/S/I)

{"columns": ["Structure Smiles String", "Result"],
 "data": [
  ["CCC[C@@H]1C[C@@H](C(=O)N[C@@H]([C@H]2O[C@H](SC)[C@H](O)[C@@H](O)[C@H]2O)[C@H](C)Cl)N(C)C1", "R"],
  ["C[C@H]1[C@H](NC(=O)/C(=N\\OC(C)(C)C(=O)O)c2csc(N)n2)C(=O)N1S(=O)(=O)O", "I"],
  ["CC[C@H]1OC(=O)[C@H](C)[C@@H](O[C@H]2C[C@@](C)(OC)[C@@H](O)[C@H](C)O2)[C@H](C)[C@@H](O[C@@H]2O[C@H](C)C[C@H](N(C)C)[C@H]2O)[C@](C)(O)C[C@@H](C)C(=O)[C@H](C)[C@@H](O)[C@]1(C)O", "R"],
  ["C[C@@H](O)[C@H]1C(=O)N2C(C(=O)O)=C(SCCN=CN)C[C@H]12", "R"]
]}

----------
Kindly supply the reported CC50 at 72 h values for the records listed here.
- Protocol Summary: Cytotoxicity test (MTS)
- Assay type: cell-based
- Condition Parameters: human, HT29 colon adenocarcinoma cells, 72 h, MTS
Numbered stars: 1 amine (or outer) side, 2 acyl side, 3 side chain; on linkers, the order of the positions; unused ones are H or OH. Square brackets hold non-standard residues; d marks the D form. Peptide text beside a SMILES is read from it. * marks the point of attachment. ξ: configuration not given here. X1 = NCC(O)CCC(N[*:1])C(=O)[*:2]; ΔZArg = N=C(N)NCC/C=C(\N)C(=O)O; ξDab(3-OH) = NCC(O)C(N)C(=O)O; Orn = NCCC[CH](N)C(=O)O; NH(CH2)4NH2 = NCCCCN*

Problem: Consider the compound N=C(N)NCC/C=C(\NC(=O)C(CCCCN)NC(=O)C(Cc1cnc[nH]1)NC(=O)C1CCCN1C(=O)C(CCCN)NC(=O)CNC(=O)C(NC(=O)C(NC(=O)C(N)CCCCN)C(O)CN)C(O)CN)C(=O)NC(CCCCN)C(=O)NCCCCN (stereo not drawn) [Odilomycin C] (H-K[ξDab(3-OH)][ξDab(3-OH)]G[Orn]PHK[ΔZArg]K-{NH(CH2)4NH2}; configuration not given here) and give its recorded CC50 at 72 h.
Result: > 100 µg/mL

Problem: Consider the compound N=C(N)NCC/C=C(\NC(=O)C(CCCCN)NC(=O)C(Cc1cnc[nH]1)NC(=O)C1CCCN1C(=O)C(CCCN)NC(=O)CNC(=O)C(NC(=O)C(NC(=O)C(N)CCCCN)C(O)CN)C(O)CN)C(=O)NC(CCC(O)CN)C(=O)NCCCCN (stereo not drawn) [Odilomycin B] (H-K[ξDab(3-OH)][ξDab(3-OH)]G[Orn]PHK[ΔZArg][X1]-{NH(CH2)4NH2}; configuration not given here) and give its recorded CC50 at 72 h.
Result: > 100 µg/mL

Problem: Consider the compound N=C(N)NCC/C=C(\NC(=O)C(CCC(O)CN)NC(=O)C(Cc1cnc[nH]1)NC(=O)C1CCCN1C(=O)C(CCCN)NC(=O)CNC(=O)C(NC(=O)C(NC(=O)C(N)CCCCN)C(O)CN)C(O)CN)C(=O)NC(CCC(O)CN)C(=O)NCCCCN (stereo not drawn) [Odilomycin A] (H-K[ξDab(3-OH)][ξDab(3-OH)]G[Orn]PH[X1][ΔZArg][X1]-{NH(CH2)4NH2}; configuration not given here) and give its recorded CC50 at 72 h.
Result: > 100 µg/mL
